- protocol notes: qHTS to identify inhibitors of the type 1 interferon - major histocompatibility complex class I in skeletal muscle: primary screen against the NCATS LOPAC collection (AID 1347405);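 note: human myoblasts with HiBiT tag on endogenous HLA-B stimulated by IFN-beta; lytic HiBiT luminescence reporting HLA-B protein level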
- measurement context: iHSKM muscle cells, IFN-b-induced MHC-I HiBiT luminescence, 24 h; series mostly up to 45.9 µM
Records with an inconclusive call do not appear. Active and inactive are the calls of the source. Calls come from the whole dose curve; as a rule, active = well fitted inhibition curve with a large enough effect; inconclusive = small, poorly fitted or top-dose-only effect; inactive = flat fitted curve, though single readings scatter.
I would appreciate it if you answered using one of these outcomes: active, inactive

{"compound smiles": "CCN(CC)CCNC(=O)c1ccc(NC(C)=O)cc1", "assigned class": "inactive"}

Dear colleague, could you share the recorded outcome for `CO[C@@]1(NC(=O)CSCC#N)C(=O)N2C(C(=O)O)=C(CSc3nnnn3C)CS[C@@H]21` when you have a moment?
inactive

Dear colleague, could you share the recorded outcome for `CSc1ccc(C(=O)c2[nH]c(=O)[nH]c2C)cc1` when you have a moment?
inactive

Dear colleague, could you share the recorded outcome for `CN(C)CC/C=C1\c2ccccc2COc2ccccc21` when you have a moment?
inactive

Dear colleague, could you share the recorded outcome for `CC(=O)[C@]1(O)Cc2c(O)c3c(c(O)c2[C@@H](O[C@H]2C[C@H](N)[C@H](O)[C@H](C)O2)C1)C(=O)c1ccccc1C3=O` when you have a moment?
active

Dear colleague, could you share the recorded outcome for `CCCCNc1ccc(C(=O)OCCN(C)C)cc1` when you have a moment?
inactive

Dear colleague, could you share the recorded outcome for `C[N+](C)(C)CCCCCCCCCC[N+](C)(C)C` when you have a moment?
inactive

Dear colleague, could you share the recorded outcome for `COc1ccc2c(c1OC)C(=O)O[C@@H]2[C@H]1c2c(cc3c(c2OC)OCO3)CCN1C` when you have a moment?
inactive

Dear colleague, could you share the recorded outcome for `COc1ccc(CN(CCN(C)C)c2ccccn2)cc1` when you have a moment?
inactive

Dear colleague, could you share the recorded outcome for `CCCCNc1c(C(=O)OCC)c(C)nc2c1cnn2CC` when you have a moment?
inactive

Dear colleague, could you share the recorded outcome for `C[C@@H](O)[C@H]1C(=O)N2C(C(=O)O)=C(SCCN=CN)C[C@H]12` when you have a moment?
inactive

The measurements presented in this section are drawn from PubChem BioAssay (NCATS).
